// data source = patent US11566007B2

Form field: IC50 (one value per entry).
Molecular target: NRAS Q61K (Homo sapiens (Human), UniProt P01111+P62937, Q61K)
Sequence (P01111 whole entry Q61K): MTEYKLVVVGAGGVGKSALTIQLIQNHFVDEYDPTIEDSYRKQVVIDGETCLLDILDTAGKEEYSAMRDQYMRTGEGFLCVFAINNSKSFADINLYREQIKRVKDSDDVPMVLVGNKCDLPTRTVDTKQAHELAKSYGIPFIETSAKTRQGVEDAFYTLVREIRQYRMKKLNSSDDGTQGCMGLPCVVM
Sequence (P62937 whole entry): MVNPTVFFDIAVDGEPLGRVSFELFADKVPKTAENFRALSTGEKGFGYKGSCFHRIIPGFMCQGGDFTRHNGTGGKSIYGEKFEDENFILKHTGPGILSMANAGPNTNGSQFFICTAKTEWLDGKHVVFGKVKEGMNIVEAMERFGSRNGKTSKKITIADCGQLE
Experiment: Ras-Raf (BRAF RBD) disruption / FRET / MOA assay, NRAS Q61K
Assay type: biochemical
Settings: NRAS Q61K; Ras-Raf disruption/FRET/MOA assay; read-out: IC50* NRAS Q61K FRET data

molecule: CO[C@@H](C)c1ncccc1-c1c2c3cc(ccc3n1CC(F)(F)F)-c1cccc(c1)C[C@H](NC(=O)[C@H](C(C)C)N(C)C(=O)N1CCC3(CC1)CN(C(=O)/C=C/CN(C)C)C3)C(=O)N1CCC[C@H](N1)C(=O)OCC(C)(C)C2 (atropisomer, axis not shown) [Example A555]
measurement_kind: IC50
result: 100 to 1000 nM

Please turn your attention to the following entry.
Kindly indicate its recorded IC50. Item: C=CC(=O)N1CC[C@H](C(=O)N(C)[C@H](C(=O)N[C@H]2Cc3cccc(c3)-c3ccc4c(c3)c(c(-c3cnccc3[C@H](C)OC)n4CC)CC(C)(C)COC(=O)[C@@H]3CCCN(N3)C2=O)C(C)C)C1 (single isomer, unassigned) [Example A115]
1000 to 10000 nM
